Test: acute toxicity (LD50), oral, rats
Details: rat, in vivo, orally administered to rats
assayReadout: LD50

Determine from records and report LD50 for CCN1CCO[C@]2(C)c3c(OC)ccc4[nH]cc(c34)C[C@@H]12 (relative stereo)
≥ 100 mg/kg
